These entries and their values trace back to ChEMBL document CHEMBL1140284.

What follows is a collection of log10 of Ki values obtained with 5-hydroxytryptamine receptor 6 (Homo sapiens, UniProt P50406).
Sequence (P50406 whole entry): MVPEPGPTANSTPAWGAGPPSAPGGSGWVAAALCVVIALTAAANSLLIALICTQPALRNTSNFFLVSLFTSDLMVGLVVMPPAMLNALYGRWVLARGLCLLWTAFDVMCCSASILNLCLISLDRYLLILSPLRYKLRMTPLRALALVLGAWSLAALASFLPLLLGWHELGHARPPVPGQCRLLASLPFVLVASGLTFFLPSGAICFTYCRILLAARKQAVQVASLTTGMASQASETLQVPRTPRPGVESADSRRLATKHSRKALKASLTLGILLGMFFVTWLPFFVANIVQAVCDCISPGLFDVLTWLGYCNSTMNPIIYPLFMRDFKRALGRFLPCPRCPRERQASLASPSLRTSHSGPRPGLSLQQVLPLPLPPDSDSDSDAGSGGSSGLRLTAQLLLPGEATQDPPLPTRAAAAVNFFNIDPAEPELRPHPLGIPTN
Please keep in mind that the values are log10 of Ki expressed in nM.

Known results for molecules:
O=S(=O)(c1ccccc1)c1cc2c(N3CCNCC3)cccc2[nH]1 ... -0.90
COc1ccc2c(c1)c(CCN)cn2S(=O)(=O)c1cccc2ccccc12 ... -0.10
Nc1ccc(S(=O)(=O)c2cc(Br)nc(Br)c2)cc1 ... 1.70
O=S(=O)(Nc1ccc2c(ccn2CCCN2CCCCC2)c1)c1c(Cl)nc2sccn12 ... 3.00
COc1ccc2c(c1)c(CCN(C)C)cn2S(=O)(=O)c1ccccc1 ... 0.40
CON1CCN(c2ccc(S(=O)(=O)c3cccc4ccccc34)cc2)CC1 ... -0.90

Field: next molecule
Here CN(C)CCc1cn(S(=O)(=O)c2ccccc2)c2ccccc12 was tested on 5-hydroxytryptamine receptor 6 (Homo sapiens, UniProt P50406), and its log10 of Ki came to 0.50
